Source of measurements: patent US20250313625A1

The entries below are paired with their reported TOP blocking (%).
Target: T1, mFc tagged human LAG3 ECD recombinant protein (human, UniProt P18627 23-450)
T1 construct: extracellular domain; purchased from Biointron; not shown: mouse IgG Fc (mFc) tag
T1 sequence (looked up): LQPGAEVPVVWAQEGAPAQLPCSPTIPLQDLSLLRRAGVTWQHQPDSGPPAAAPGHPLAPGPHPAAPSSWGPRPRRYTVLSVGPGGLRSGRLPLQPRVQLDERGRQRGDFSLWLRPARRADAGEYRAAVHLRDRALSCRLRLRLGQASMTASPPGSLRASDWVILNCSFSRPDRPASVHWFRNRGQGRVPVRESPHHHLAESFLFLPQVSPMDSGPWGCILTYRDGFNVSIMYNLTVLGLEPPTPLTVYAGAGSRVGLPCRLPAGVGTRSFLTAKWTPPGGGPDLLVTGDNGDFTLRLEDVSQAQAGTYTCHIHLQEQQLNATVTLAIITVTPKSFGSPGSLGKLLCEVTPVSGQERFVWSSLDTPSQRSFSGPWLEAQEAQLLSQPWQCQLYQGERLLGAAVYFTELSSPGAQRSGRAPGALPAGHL
Test: competitive FACS: mFc-LAG3 ECD binding to Raji cells (MHC II)
Hey, just the number and the unit after it is fine.

These solved cases illustrate the format of a correct answer.
TSR-033 (antibody, V domains shown) VH: EVQLVQSGAEVKKPGATVKISCKASGFSIKDDYIHWVQQAPGKGLEWMGWIDAMNDDSQYSSKFQGRVTITVDTSTNTAYMKLSSLRSEDTAVYYCTYAFGGYWGQGTTVTVSS VL: DIVMTQTPLSLSVTPGQPASISCRSSQSLVHSDSNTYLHWYLQKPGQSPQLLIYLVSNRFSGVPDRFSGSGSGTDFTLKISRVEAEDVGVYFCGQSTHVPYAFGGGTKVEIK ... 96%
023c (antibody, human IgG4, V domains shown, human IgG4 S228P / kappa chimeric antibody; also called chimeric antibody 023; ES005-023c; not shown: human kappa light chain constant region (pcDNA3.4-hIgGk vector)) VH: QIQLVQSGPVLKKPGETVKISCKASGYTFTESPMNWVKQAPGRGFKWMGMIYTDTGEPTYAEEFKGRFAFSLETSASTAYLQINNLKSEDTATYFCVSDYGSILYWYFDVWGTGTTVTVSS VL: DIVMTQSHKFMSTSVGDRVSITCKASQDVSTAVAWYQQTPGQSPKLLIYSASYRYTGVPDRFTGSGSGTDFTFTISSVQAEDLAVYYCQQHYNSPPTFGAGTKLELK ... 94.6%
047c (antibody, human IgG4, V domains shown, human IgG4 S228P / kappa chimeric antibody; also called chimeric antibody 047; not shown: human kappa light chain constant region (pcDNA3.4-hIgGk vector)) VH: QVQLQQSGAELARPGASVKLSCKASGYSFTSYGVNWVKQRTGQGLEWIGEIYPRSGNTYYNERFGDKATLTADKSSSTAYMEIRSLTSEDSAVYFCARGGTYDGYYYAMDYWGQGTSVTVSS VL: DIVLTQSPASLAVSLGQRATISCRASESVDNFGSSFMHWYQQKPGQAPKLLIYRASNLESGIPARFSGSGSRTDFTLTINPVETDDVATYYCQQVNKDPRTFGGGTKLEIK ... 90.4%
015c (antibody, human IgG4, V domains shown, human IgG4 S228P / kappa chimeric antibody; also called chimeric antibody 015; not shown: human kappa light chain constant region (pcDNA3.4-hIgGk vector)) VH: EVQLQQSGPVLVKPGASVKLSCKASGFTFTDYYMNWVKLSHGKSLEWIGVINPFNGDTAYKQKFKGKATLTVDKSSSTAYMELNSLTSEDSAVYYCARDDGYYLYYFDSWGQGTTLTVSS VL: DIQMTQSPSSLSASLGERVSLTCRASQDIGSRLNWLQQEPDGTIKRLIYATSSLDSGVPKRFSGSRSGSDYSLTISSLDSEDFVVYYCLQYASSPPTFGAGTKLELK ... 77.1%
057c (antibody, human IgG4, V domains shown, human IgG4 S228P / kappa chimeric antibody; also called chimeric antibody 057; not shown: human kappa light chain constant region (pcDNA3.4-hIgGk vector)) VH: QVQLQQSGAELARPGASVKLSCKASGFSFTSYGINWVKQRTGQGLEWIGEIYPRSGNTYYNEKLKGEATLTADRSSSTAYMELRSLTSEDSAVYFCARGGTYDGYYYAMDYWGQGTSVTVSS VL: NIVLTQSPASLAVSLGQRATISCRASESVDNFGSSFMHWYQQKPGQAPKLLIYRASNLESGIPARFGGSGSGTDFTLTIDPVETDDVATYYCQQVNKDPRTFGGGTKLEIK ... 95.1%

--- query ---
**Q:** So what does the record say about TOP blocking (%) for 029c (antibody, human IgG4, V domains shown, human IgG4 S228P / kappa chimeric antibody; also called chimeric antibody 029; not shown: human kappa light chain constant region (pcDNA3.4-hIgGk vector)) VH: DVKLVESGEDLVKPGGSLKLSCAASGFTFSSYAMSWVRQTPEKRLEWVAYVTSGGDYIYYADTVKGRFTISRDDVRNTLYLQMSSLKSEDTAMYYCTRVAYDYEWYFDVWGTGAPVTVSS VL: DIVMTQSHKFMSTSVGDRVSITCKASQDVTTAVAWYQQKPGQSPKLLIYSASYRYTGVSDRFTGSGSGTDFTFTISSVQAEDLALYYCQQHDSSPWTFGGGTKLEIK ?
**A:** 96.4%
